target: T1, mouse TMEM106B (mouse, UniProt Q80X71 2-275); test: FACS Neuro2a;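 further: flow cytometry of antibody binding to cells: hybridoma supernatant or purified antibody at 10 µg/ml, 1 h on ice, secondary detection, propidium iodide–positive dead cells gated out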
T1 construct: transiently expressed on HEK293 cells, or native on mouse Neuro2a cells; also called moTMEM106B; murine TMEM106B
Outcome label depends on MFI relative to 400 MFI: at/above gives Yes, below gives No.

Task item: Has TM-18 (antibody, V domains shown) VH: EVRLQQSGPELVKPGASVKISCKTSGYTFTDYYMNWVKQSHGKSLEWIVNINPNNGDAFYNQKFKGKATLTVDKSSNTAYLDLRSLTSEDSAVYYCAREGQLRLRRVYAMDYWGQGTSVTVSS VL: DIVLAQSPASLAVSLGQRATISCRASKSVSISVYTYVHWYQQKPGQPPKLLIYLASNLESGVPARFSGSGSGTDFTLNIHPVEEEDAATYYCQHSRELPYTFGGGTKLEIK a recorded MFI greater than or equal to 400 MFI?
Reply: Yes

Task item: Is MFI for TM-2 (antibody, V domains shown) VH: HIQLVQSGPELKKPGETVKISCKASGYTFTEYPMHWVKQAPGKGFRWMGMIYTNTGEPTYAAEFKGRFAFSLETSASTGYLQINNLKNEDSATYFCVTAGYWGQGTLVTVSA VL: QIVLTQSPAILSASPGEKVTMTCRASSSVSYIHWFLQKPGSSPKPWIYATSNLASGVPFRFIGSGSGTSYSLTISGVEAEDSATYYCQQWSSNPSTFGAGTKLELK at or above 400 MFI?
Reply: Yes

Task item: Kindly determine if MFI recorded for TM-50 (antibody, V domains shown, mouse IgG (hybridoma)) VH: QVQLKESGPVLVAPSQSLSITCTVSGFSLTNYGVHWVRQPPGKGLEWLGVIWAGGNTNYNSALMSRLSISKDNSKSQVFLKMNSLQTDDTAMYYCAKEAKLLRSYAMDYWGQGTLVTVSA VL: DVQMTQTTSSLSASLGDRVTISCRASQDINNYLYWYQQKPDGTVKLLIYYTSMLHSGVPSRFSGSGSGTDYSLTISNLEQEDIATYFCQQGSTLMYTFGGGTKLEIK is above or exactly 400 MFI.
Reply: No

New cases:
Task item: Determine whether this binder has MFI no lower than 400 MFI: TM-37 (antibody, V domains shown) VH: QVQLQQSGAELAKPGASVKLSCKASGYTFTSYWMHWVKQRPGQGLEWIGYVNPSSGYTKNNQKFKDKVTLTADKSSSTAYMQLSSLTYEDSAVYYCAREGGSISDWYFDVWGTGTTVTVSS VL: DIVMTQAAPSVPVTPGESVSISCRSSKSLLHSNGNTYSYWFLQRPGQSPQLLIYRMSNLASGVPDRFSGSGSGTAFTLRISRVEAEDVGVYYCMQHLEYPYTFGGGTKLEIK
Reply: No

Task item: Is reported MFI greater than or equal to 400 MFI here: TM-13 (antibody, V domains shown) VH: QVQLQQSGAELVKPGASVKMSCKASGYTFTTFPIEWMKQSHGKGLEWIGNFHPYNDDTKYNEKFKGKATLTVDKSSSTVYLDLSRLTSDDSAVYYCARYFYGGMDYWGQGTSVTVSS VL: DIQMTQSPASLSVSVGETVTITCRASENIYSSLGWYQQKQGESPQLLVFAATNLADGVPSRFSGSGSGTQYSLKINSLQSEDFGTYYCQHLWSIPWTFGGGTRLEIK
Reply: Yes

Task item: Check this binder for MFI at or above 400 MFI: TM-21 (antibody, V domains shown) VH: EVQLVESGGGLVKPGGSLKLSCAASGFTFSNYAMSWVRETPEKRLEWVAFISDGGGYIYYADNVKDRFTISRDNAKNNLYLQMRHLKSEDTAMYYCARDGGTGFTYWGQGTLVTVSV VL: DIVMTQAAFSNPVTLGTSASISCRSSKSLLHSNGITYLFWYLQKPGQSPQLLIYQMSNLASGVPDRFSSSGSGTDFTLRISRVEAEDVGVYYCVQNLELPYTFGGGTKLEIK
Reply: Yes

Task item: Check the entry TM-25 (antibody, V domains shown) VH: EVQLVESGGDLVKPGGSLRLSCAASGFTFSGYGMSWIRQTPDKRLEWVATISSGGRYTVYPDSVKGRFTMSRDNVKNTLYLQMSSLKSEDTALYYCARDNFYSYAMDYWGLGTSVTVSA VL: DIVMTQAAFSNPVTLGTSASISCRSSKSLLHSNGITYLFWYLQKPGQSPQLLIYQMSNLASGVPDRFSSSGSGTDFTLRISRVEAEDVGVYYCAQNLELWTFGGGTKLEIK : does MFI equal or exceed 400 MFI?
Reply: No

Task item: Item TM-12 (antibody, V domains shown) VH: EVQLQQSGAELMRPGASVKLSCTASGFNIQDYYMYWVKQRPEQGLEWIGRIDPEDGDAEYAPKFQGKATMTADTSSNTAYLQLSSLTSEDTAVYYCSTRVIYDGYYRTMDCWGQGTSVTVSS VL: DVLMTQIPLSLPVSLGDQASISCRSSQTIVHSNGNTYLEWYLKKPGQSPKLLIDKISNRFSGVPDRFSGSGSGTDFTLKISRVEAEDLGVYYCFQGSHVPYTFGGGTKLEIK with MFI of 400 MFI or above?
Reply: Yes

Task item: hey, is MFI for this one >= 400 MFI? TM-1 (antibody, V domains shown) VH: QVQLQQSGAELVRPGTSVKVSCKASGYAFTNYLIEWVKQRPGQGLEWIGVINPGSGGTKYNEKLKGKATLTADKSSSTAYMQLSSLTSVDSAVYFCARRGYTIYDFYAMDYWGQGTSVTVSS VL: DVLMTQTPLSLPVSLGDHASISCRSSQSIVYNNGNTYLEWYLQKPGQSPKLLIYKVSNRFSGVPDRFSGSGSGTDFTLKISRVEAEDLGVYYCFQVSHVPFTFGSGTKLEIK
Reply: No
